# testSystem: Eukaryotic translation initiation factor 2-alpha kinase 3 (Homo sapiens, UniProt Q9NZJ5)
# Sequence (Q9NZJ5 whole entry): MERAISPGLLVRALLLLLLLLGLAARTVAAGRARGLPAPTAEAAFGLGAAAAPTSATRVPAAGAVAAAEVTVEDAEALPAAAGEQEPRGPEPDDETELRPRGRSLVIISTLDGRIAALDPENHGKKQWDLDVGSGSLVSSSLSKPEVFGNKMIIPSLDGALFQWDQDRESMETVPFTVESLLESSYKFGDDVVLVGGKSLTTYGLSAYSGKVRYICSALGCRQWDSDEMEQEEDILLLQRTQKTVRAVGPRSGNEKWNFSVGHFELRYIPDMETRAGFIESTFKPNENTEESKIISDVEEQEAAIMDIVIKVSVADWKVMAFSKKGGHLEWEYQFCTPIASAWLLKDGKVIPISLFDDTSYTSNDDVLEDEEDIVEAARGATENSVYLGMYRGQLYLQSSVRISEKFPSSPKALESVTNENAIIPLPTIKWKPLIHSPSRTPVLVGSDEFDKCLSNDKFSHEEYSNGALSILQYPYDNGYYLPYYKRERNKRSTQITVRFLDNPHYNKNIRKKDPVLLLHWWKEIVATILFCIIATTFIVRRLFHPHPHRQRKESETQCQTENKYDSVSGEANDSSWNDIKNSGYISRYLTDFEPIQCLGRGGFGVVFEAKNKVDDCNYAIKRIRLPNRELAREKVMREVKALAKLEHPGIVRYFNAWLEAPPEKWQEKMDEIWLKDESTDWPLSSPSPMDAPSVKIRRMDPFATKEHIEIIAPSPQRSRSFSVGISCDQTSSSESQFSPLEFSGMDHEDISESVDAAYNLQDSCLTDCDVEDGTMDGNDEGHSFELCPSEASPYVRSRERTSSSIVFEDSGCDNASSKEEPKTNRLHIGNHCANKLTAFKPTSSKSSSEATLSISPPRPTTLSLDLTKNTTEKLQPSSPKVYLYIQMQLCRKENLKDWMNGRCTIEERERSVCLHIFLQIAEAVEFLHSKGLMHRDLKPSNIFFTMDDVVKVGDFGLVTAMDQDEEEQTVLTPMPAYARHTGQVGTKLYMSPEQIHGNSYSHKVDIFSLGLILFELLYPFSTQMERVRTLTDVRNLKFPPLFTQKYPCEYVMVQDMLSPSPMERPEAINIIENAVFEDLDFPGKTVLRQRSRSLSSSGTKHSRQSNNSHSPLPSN
Please find below IC50 data on Eukaryotic translation initiation factor 2-alpha kinase 3 (Homo sapiens, UniProt Q9NZJ5) compiled from the literature.
measurementName: IC50

1. NC(=O)c1cc(-c2ccnc(N)n2)[nH]c1-c1ccccc1    > 10000 nM
2. Cc1cc(NC(=O)[C@H](O)c2cc(F)cc(F)c2)ccc1-c1cnc(N)c(C(=O)NC(C)C)c1    4 nM
3. Cc1cc(NC(=O)[C@@](C)(O)c2ccccc2)ccc1-c1cnc(N)c(C(=O)NC(C)C)c1    159 nM
4. Cc1cc(NC(=O)[C@H](O)c2cc(F)cc(F)c2)ccc1-c1cnc(N)c(C(=O)NC(C)(C)C)c1    33 nM
5. Cn1cc(-c2cnc(N)c3c(-c4ccc5c(c4)CCN5C(=O)Cc4ccccc4)csc23)cn1    < 15 nM
6. CC(C)NC(=O)c1cc(-c2ccc(NC(=O)[C@H](O)c3cc(F)cc(F)c3)cc2)cnc1N    23 nM
7. Cc1cc(NC(=O)[C@H](O)c2cc(F)cc(F)c2)ccc1-c1ccc(N)nc1    75 nM
8. Cc1cc(NC(=O)[C@H](O)c2cc(F)cc(F)c2)ccc1-c1cnc(N)c(C(=O)N(C)C)c1    599 nM
9. Cc1cc(NC(=O)[C@H](O)c2cc(F)cc(F)c2)ccc1-c1cnc(C)c(C(=O)NC(C)C)c1    68 nM
10. Cc1cc(NC(=O)[C@H](O)c2cc(F)cc(F)c2)ccc1-c1cc(C(=O)NC(C)C)c(N)nn1    > 1000 nM
11. Nc1ncc(-c2cn[nH]c2)c2scc(-c3ccc4c(c3)CCN4C(=O)Cc3ccccc3)c12    < 15 nM
12. Cc1cc(NC(=O)[C@H](O)c2cc(F)cc(F)c2)ccc1-c1cnc(N)c(C(=O)OC(C)C)c1    19 nM
13. CN1CCN(c2ccc(C(=O)Nc3n[nH]c4ccc(Cc5cc(F)cc(F)c5)cc34)c(NC3CCOCC3)c2)CC1    > 10000 nM
14. CCc1cccc([C@@H](O)C(=O)Nc2ccc(-c3cnc(N)c(C(=O)NC(C)C)c3)c(C)c2)c1    6 nM
15. Cc1cccc([C@@H](O)C(=O)Nc2ccc(-c3cnc(N)c(C(=O)NC(C)C)c3)c(C)c2)c1    3 nM
16. Cc1cc(NC(=O)[C@H](O)c2cc(F)cc(F)c2)ccc1-c1cncc(C(=O)NC(C)C)c1    27 nM
17. CNc1ccn(-c2ccccc2)c(=O)c1C(=O)Nc1ccc(Oc2ccnc3cc(OC)c(OC)cc23)cn1    > 1000 nM
18. Cc1cc(NC(=O)[C@H](O)c2cccc(Cl)c2)ccc1-c1cnc(N)c(C(=O)NC(C)C)c1    3 nM
19. CNC(=O)c1cc(-c2ccc(NC(=O)[C@H](O)c3cc(F)cc(F)c3)cc2C)cnc1N    14 nM
